Molecular target: ZIKV NS2B-NS3 protease (Zika virus ZIKV/H. sapiens/FrenchPolynesia/10087PF/2013, UniProt A0A024B7W1)
Construct: recombinant NS2B-NS3 protease cut from the ZIKV genome polyprotein; codon-optimized synthetic gene in pET22b; His-tag fused; E. coli BL21(DE3); Ni-NTA purified
Sequence (A0A024B7W1 1503-1680): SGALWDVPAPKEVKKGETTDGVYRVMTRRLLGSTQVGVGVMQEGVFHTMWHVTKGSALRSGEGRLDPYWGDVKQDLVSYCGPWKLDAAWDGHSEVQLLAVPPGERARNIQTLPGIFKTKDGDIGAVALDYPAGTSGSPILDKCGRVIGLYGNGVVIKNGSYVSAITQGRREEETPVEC
Experiment: fluorescence-based protease inhibition assay, ex […] nm / em […] nm
Details: read-out: apparent IC50
ASSAY_METRIC: IC50 (nM)
Field: numeric (nM). Do not append units.

Problem: Would you mind telling me what IC50 value was observed for O=[N+]([O-])c1ccc(Nc2ccc3[nH]ncc3c2)nc1N1CCNCC1 [compound 1] ?
Solution: 1500
